Test system: Aspergillus flavus
procedure_summary: MIC, RPMI medium
Type: cell-based
test_parameters: Aspergillus flavus, MIC banded into grades, read-out: MIC grade, A. flavus
assay_endpoint: MIC

Below, each entry is followed by its recorded MIC result.
test_smiles: CCn1c(C)cc(-c2ccccc2)c1C(=O)C(=O)Nc1ccc(N2CCN(c3cc(C)cc(C)n3)CC2)cc1
MIC: < 1 µg/mL
//
test_smiles: COCCn1ccc(-c2cccs2)c1C(=O)C(=O)Nc1ccc(N2CCN(c3cc(C)cc(C)n3)CC2)cc1
MIC: 1 to 10 µg/mL
//
test_smiles: Cc1cc(C)nc(N2CCN(c3ccc(NC(=O)C(=O)c4c(-c5ccccc5)cc(C)n4CCN(C)C)cc3)CC2)c1
MIC: > 10 µg/mL

MIC reported for this molecule Cc1cc(-c2ccccc2)c(C(=O)C(=O)Nc2cccc3cccnc23)n1C : 1 to 10 µg/mL

###

Test system: Aspergillus terreus AT49
procedure_summary: MIC, YAG medium
Format: cell-based
test_parameters: Aspergillus terreus, 24 h at 35° C, MIC banded into grades, read-out: MIC grade, A. terreus 49
assay_endpoint: MIC

Below, each entry is followed by its recorded MIC result.
test_smiles: Cc1cc(-c2ccccc2)c(C(=O)C(=O)Nc2ccc(-c3ncco3)c(F)c2)n1C
MIC: < 1 µg/mL
--
test_smiles: CCc1cc(-c2ccccc2)c(C(=O)C(=O)Nc2ccc(N3CCN(c4cc(C)cc(C)n4)CC3)cc2)n1COC
MIC: < 1 µg/mL
--
test_smiles: Cc1cc(C)nc(N2CCN(c3ccc(NC(=O)C(=O)c4c(-c5cccs5)cc(C)n4C)cc3)CC2)c1
MIC: < 1 µg/mL
--
test_smiles: Cc1cc(C)nc(N2CCN(c3ccc(NC(=O)C(=O)c4c(-c5ccccc5)cc(C)n4CCO)cc3)CC2)c1
MIC: < 1 µg/mL
--
test_smiles: CCCn1c(C)cc(-c2ccccc2)c1C(=O)C(=O)Nc1ccc(N2CCN(c3cc(C)cc(C)n3)CC2)cc1
MIC: < 1 µg/mL

MIC reported for this compound COCc1cc(-c2ccccc2)c(C(=O)C(=O)Nc2ccc(N3CCN(c4cc(C)cc(C)n4)CC3)cc2)n1C : < 1 µg/mL

MIC reported for this compound COCn1c(C)cc(-c2ccccc2)c1C(=O)C(=O)Nc1ccc(N2CCN(c3cc(C)cc(C)n3)CC2)cc1 : < 1 µg/mL

###

Consider the following compounds and their measured MIC readings.
Tested on: Aspergillus flavus
procedure_summary: MIC, RPMI medium
Format: cell-based
test_parameters: Aspergillus flavus, MIC banded into grades, read-out: MIC grade, A. flavus
Method: Between 1 and 5 mgs of compound were accurately weighed out into a sterile Eppendorf tube. The compound was dissolved in DMSO to give a solution containing 5 mg/mL. Tubes were stored at −20° C. until required. On the day of testing thawed solutions were vortex mixed to ensure homogeneity. […] This produced MIC plates with a drug range 50-0.05 mg/L and organism inocula of 1−2×10^4 cfu/mL. […] Growth was assessed by monitoring the optical density at 485 nm for each well. […]

compound: COCCn1c(C)cc(-c2ccccc2)c1C(=O)C(=O)Nc1ccc(N2CCN(c3cc(C)cc(C)n3)CC2)cc1Cl [Example 26]
assay_endpoint: MIC
test_result: > 10 mg/L
--
compound: COCc1cc(-c2ccccc2)c(C(=O)C(=O)Nc2ccc(N3CCN(c4cc(C)cc(C)n4)CC3)cc2)n1COC [Example 131]
assay_endpoint: MIC
test_result: > 10 mg/L
--
compound: COCCn1c(C)cc(-c2ccccc2)c1C(=O)C(=O)Nc1ccc(N2CCCCC2)cc1F [Example 114]
assay_endpoint: MIC
test_result: 1 to 10 mg/L
--
compound: COCCn1c(C)cc(-c2ccccc2)c1C(=O)C(=O)Nc1ccc(N2CCN(CC(C)C)CC2)cc1F [Example 110]
assay_endpoint: MIC
test_result: 1 to 10 mg/L
--
compound: COCc1cc(-c2ccccc2)c(C(=O)C(=O)Nc2ccc(N3CCN(c4cc(C)cc(C)n4)CC3)cc2)n1C [Example 130]
assay_endpoint: MIC
test_result: < 1 mg/L

MIC reported for this compound Cc1cc(C)nc(N2CCN(c3ccc(NC(=O)C(=O)c4c(-c5ccccc5)cc(C)n4Cc4ccncc4)cc3)CC2)c1 [Example 102] : > 10 mg/L

MIC reported for this compound COCCn1c(C)cc(-c2ccccc2)c1C(=O)C(=O)Nc1cccc2ncccc12 [Example 29] : > 10 mg/L
